Source of measurements: patent US20050043315A1

Each entry below carries its recorded melting point.

- compound: "CSc1nc(N)nc(-c2ccc([S+](C)[O-])cc2)c1-c1ccc(=O)n(C(C)C)n1 (stereo not shown) [Example 152]"
  melting point: "221 to 223 °C"
- compound: "Nc1ncc(-c2ccc(=O)[nH]n2)c(-c2ccccc2)n1 [Example 1]"
  melting point: "> 280 °C"
- compound: "C#CCOc1nc(N)nc(-c2ccccc2)c1-c1ccc(=O)n(C(C)C)n1 [Example 85]"
  melting point: "145 to 146.6 °C"
- compound: "COc1nc(N)nc(-c2ccccc2)c1-c1ccc(=O)n(C(C)C)n1 [Example 80]"
  melting point: "230 to 233 °C"
- compound: "CC(C)n1nc(-c2c(Cl)nc(N)nc2-c2ccccc2)ccc1=O [Example 252]"
  melting point: "235 to 237 °C"
- compound: "Cn1nc(-c2c(NCc3ccccc3)nc(N)nc2-c2ccccc2)ccc1=O [Example 145]"
  melting point: "> 250 °C"
- compound: "CC(C)n1nc(-c2c(NCCO)nc(N)nc2-c2ccccc2)ccc1=O [Example 114]"
  melting point: "221.5 to 223.5 °C"
- compound: "CN(C)c1ncc(-c2ccc(=O)[nH]n2)c(-c2ccccc2)n1 [Example 9]"
  melting point: "245 to 246 °C"
- compound: "CC(C)n1nc(-c2c(OC3CCC3)nc(N)nc2-c2ccccc2)ccc1=O [Example 83]"
  melting point: "161 to 162.5 °C"
- compound: "Nc1ncc(-c2ccc(=O)[nH]n2)c(-c2ccco2)n1 [Example 34]"
  melting point: "262 to 268 °C"

###

experimental endpoint: melting point

- compound: "CC(C)n1nc(-c2c(OCc3ccccc3)nc(N)nc2-c2ccccc2)ccc1=O [Example 93]"
  experimental endpoint: "melting point"
  data value: "162 to 163 °C"
- compound: "CC(C)n1nc(-c2cnc(N)nc2-c2ccccc2Br)ccc1=O [Example 15]"
  experimental endpoint: "melting point"
  data value: "203 to 205 °C"
- compound: "CC(C)n1nc(-c2c(OCCN)nc(N)nc2-c2ccccc2)ccc1=O [Example 104]"
  experimental endpoint: "melting point"
  data value: "213 to 216 °C"
- compound: "CC(C)n1nc(-c2c(OC3CCOCC3)nc(N)nc2-c2ccccc2)ccc1=O [Example 97]"
  experimental endpoint: "melting point"
  data value: "207 to 209 °C"
- compound: "CC(C)n1nc(-c2cnc(NC(=O)c3cccnc3)nc2-c2ccccc2)ccc1=O [Example 175]"
  experimental endpoint: "melting point"
  data value: "163 to 167 °C"
- compound: "COc1cccc(-c2nc(N)ncc2-c2ccc(=O)n(C)n2)c1 [Example 73]"
  experimental endpoint: "melting point"
  data value: "195 °C"
- compound: "CC(C)n1nc(-c2cnc(N(C(=O)c3ccc(F)cc3)C(=O)c3ccc(F)cc3)nc2-c2ccccc2)ccc1=O [Example 179]"
  experimental endpoint: "melting point"
  data value: "148 to 151 °C"
- compound: "CC(C)n1nc(-c2cnc(N)nc2-c2ccc(Cl)cc2)ccc1=O [Example 45]"
  experimental endpoint: "melting point"
  data value: "195 °C"
- compound: "COC(=O)Nc1ncc(-c2ccc(=O)n(C(C)C)n2)c(-c2ccccc2)n1 [Example 168]"
  experimental endpoint: "melting point"
  data value: "197 to 200 °C"
- compound: "CNC(=O)COc1nc(N)nc(-c2ccccc2)c1-c1ccc(=O)n(C(C)C)n1 [Example 101]"
  experimental endpoint: "melting point"
  data value: "204 to 205.5 °C"
- compound: "CC(C)n1nc(-c2c(NCc3ccccn3)nc(N)nc2-c2ccccc2)ccc1=O [Example 121]"
  experimental endpoint: "melting point"
  data value: "196 to 198 °C"
- compound: "Cn1nc(-c2cnc(N)nc2-c2ccccc2)ccc1=O [Example 3]"
  experimental endpoint: "melting point"
  data value: "254 to 255 °C"
- compound: "CC(C)n1nc(-c2c(OCC(=O)c3ccccc3)nc(N)nc2-c2ccccc2)ccc1=O [Example 161]"
  experimental endpoint: "melting point"
  data value: "182 to 183 °C"
- compound: "CNc1ncc(-c2ccc(=O)n(C(C)C)n2)c(-c2ccccc2)n1 [Example 10]"
  experimental endpoint: "melting point"
  data value: "160 to 161 °C"
- compound: "CC(C)Oc1nc(N)nc(-c2ccccc2)c1-c1ccc(=O)n(C(C)C)n1 [Example 82]"
  experimental endpoint: "melting point"
  data value: "176.5 to 177.5 °C"
- compound: "COc1nc(N)nc(-c2ccc(S(C)(=O)=O)cc2)c1-c1ccc(=O)n(C(C)C)n1 [Example 150]"
  experimental endpoint: "melting point"
  data value: "148 to 151 °C"
- compound: "CC(C)n1nc(-c2cnc(N)nc2-c2ccc(Br)cc2)ccc1=O [Example 235]"
  experimental endpoint: "melting point"
  data value: "204 °C"
- compound: "CC(C)n1nc(-c2c(OCCF)nc(N)nc2-c2ccccc2)ccc1=O [Example 92]"
  experimental endpoint: "melting point"
  data value: "129 to 130.5 °C"
- compound: "CC(C)n1nc(-c2c(OCCN(C)C)nc(N)nc2-c2ccccc2)ccc1=O [Example 88]"
  experimental endpoint: "melting point"
  data value: "130 to 131.5 °C"
- compound: "CC(C)n1nc(-c2cnc(N)nc2-c2ccccc2OCCN(C)C)ccc1=O [Example 218]"
  experimental endpoint: "melting point"
  data value: "198 °C"
